Property: log10(N2 permeability); scope: individual compounds
assay_readout: log10(N2 permeability) (log10 of the value in Barrer)

>>> quantitative_result("*O[Si](*)(C)CCCCCCCC (repeat unit)")
1.95
>>> quantitative_result("*Oc1ccc(Oc2cccc(*)c2C#N)c(-c2cc(C)cc(C)c2)c1 (repeat unit)")
-0.77
>>> quantitative_result("*C(=C(*)c1ccc2c(c1)C(C)(C)CC2(C)C)c1ccc(Cl)cc1 (repeat unit)")
3.96
>>> quantitative_result("*c1ccc(Cc2ccc(N3C(=O)c4ccc(-c5ccc6c(c5)C(=O)N(*)C6=O)cc4C3=O)cc2)cc1 (repeat unit)")
-1.66
>>> quantitative_result("*Oc1ccc(Oc2ccc(C(=O)c3ccc(*)cc3)cc2)c(-c2cccc(C(F)(F)F)c2)c1 (repeat unit)")
-1.29
>>> quantitative_result("*Oc1c(C)cc(-c2cc(C)c(Oc3ccc(S(=O)(=O)c4ccc(*)cc4)cc3)c(C)c2C)c(C)c1C (repeat unit)")
0.08
>>> quantitative_result("*c1ccc2c3c(ccc2c1)OC1Oc2ccc4cc(N5C(=O)c6ccc(C(c7ccc8c(c7)C(=O)N(*)C8=O)(C(F)(F)F)C(F)(F)F)cc6C5=O)ccc4c2C31 (repeat unit)")
0.08
>>> quantitative_result("*c1ccc(Cc2ccc(N3C(=O)c4ccc(Oc5ccc(C(c6ccc(Oc7ccc8c(c7)C(=O)N(*)C8=O)cc6)(C(F)(F)F)C(F)(F)F)cc5)cc4C3=O)cc2)cc1 (repeat unit)")
-1.12
>>> quantitative_result("*c1ccc(Sc2ccc(Sc3ccc(N4C(=O)c5ccc(C(c6ccc7c(c6)C(=O)N(*)C7=O)(C(F)(F)F)C(F)(F)F)cc5C4=O)cc3)cc2)cc1 (repeat unit)")
-0.47
>>> quantitative_result("*c1ccc(N(c2ccc(N3C(=O)c4ccc(C(c5ccc6c(c5)C(=O)N(*)C6=O)(C(F)(F)F)C(F)(F)F)cc4C3=O)cc2)c2ccc(N(c3ccccc3)c3ccccc3)cc2)cc1 (repeat unit)")
-0.35
>>> quantitative_result("*Oc1c(-c2ccccc2)cc(*)cc1-c1ccccc1 (repeat unit)")
0.18
>>> quantitative_result("*C(C)=C(*)[Si](C)(C)C (repeat unit)")
3.75
>>> quantitative_result("*Oc1ccc(Cc2ccc(Oc3ccc(S(=O)(=O)c4ccc(*)cc4)cc3)cc2)cc1 (repeat unit)")
-0.70
>>> quantitative_result("*CC(*)OC(=O)c1ccc(C)cc1 (repeat unit)")
-0.47
>>> quantitative_result("*Oc1ccc(C2(c3ccc(OC(=O)c4cc(C(*)=O)cc(C(C)(C)C)c4)cc3)OC(=O)c3ccccc32)cc1 (repeat unit)")
0.03
>>> quantitative_result("*OC(=O)Oc1ccc(C2(c3ccc(*)cc3)CCCCC2)cc1 (repeat unit)")
-0.98
>>> quantitative_result("*C(=C(*)c1ccc2c(c1)C(C)(C)CC2(C)C)c1ccc(C)cc1 (repeat unit)")
3.61
>>> quantitative_result("*c1ccc(-c2ccc(N3C(=O)c4ccc(C(=O)Oc5ccc(C(c6ccc(OC(=O)c7ccc8c(c7)C(=O)N(*)C8=O)cc6)(C(F)(F)F)C(F)(F)F)cc5)cc4C3=O)cc2)cc1 (repeat unit)")
-1.29
>>> quantitative_result("*=CC1CC(C=*)C(COS(=O)(=O)c2ccc(C)cc2)C1 (repeat unit)")
-1.22
>>> quantitative_result("*Nc1ccc(C(c2ccc(NC(=O)c3ccc(Oc4cc(C(C)(C)C)c(Oc5ccc(C(*)=O)cc5)cc4C(C)(C)C)cc3)cc2)(C(F)(F)F)C(F)(F)F)cc1 (repeat unit)")
0.18
>>> quantitative_result("*c1ccc2c(c1)-c1nc3ccc(-c4ccc5c(c4)nc4n5C(=O)c5cc(C(c6ccc7c(c6)C(=O)N(*)C7=O)(C(F)(F)F)C(F)(F)F)ccc5-4)cc3n1C2=O (repeat unit)")
1.11
>>> quantitative_result("*O[Si](*)(C)c1ccccc1 (repeat unit)")
0.93
>>> quantitative_result("*Oc1ccc(C(C)(C)c2ccc(Oc3c(F)c(F)c(COC(C4CCCC(C(OCc5c(F)c(F)c(*)c(F)c5F)(C(F)(F)F)C(F)(F)F)C4)(C(F)(F)F)C(F)(F)F)c(F)c3F)cc2)cc1 (repeat unit)")
-0.32
>>> quantitative_result("*[Si](C)(C)c1cccc([Si](*)(C)C)c1 (repeat unit)")
1.50
>>> quantitative_result("*c1ccc(C(c2ccc(N3C(=O)c4ccc(C(c5ccc6c(c5)C(=O)N(*)C6=O)(C(F)(F)F)C(F)(F)F)cc4C3=O)cc2)(C(F)(F)F)C(F)(F)F)cc1 (repeat unit)")
0.53
>>> quantitative_result("*Oc1ccc(C(c2ccc(Oc3ccc(S(=O)(=O)c4ccc(*)cc4)cc3)cc2)(C(F)(F)F)C(F)(F)F)cc1 (repeat unit)")
-0.17
>>> quantitative_result("*C(=C(*)c1ccc2c(c1)Cc1ccccc1-2)c1ccccc1 (repeat unit)")
3.11
>>> quantitative_result("*c1ccc(-c2ccc(Oc3ccc(C4(c5ccc(Oc6ccc(-c7ccc(N8C(=O)c9ccc(Oc%10ccc%11c(c%10)C(=O)N(*)C%11=O)cc9C8=O)cc7)cc6C(F)(F)F)cc5)c5ccccc5C(=O)N4c4ccccc4)cc3)c(C(F)(F)F)c2)cc1 (repeat unit)")
-0.02
